- STUDY_TARGET: T1, human TNF-α (human, UniProt P01375 77-233)
- T1 construct: It was biotinylated in the ELISA and unlabelled in the L929 bioassay (prepared at Abbott Bioresearch Center); also called hTNFa; hTNF
- T1 sequence (P01375 77-233 R107D limits assumed): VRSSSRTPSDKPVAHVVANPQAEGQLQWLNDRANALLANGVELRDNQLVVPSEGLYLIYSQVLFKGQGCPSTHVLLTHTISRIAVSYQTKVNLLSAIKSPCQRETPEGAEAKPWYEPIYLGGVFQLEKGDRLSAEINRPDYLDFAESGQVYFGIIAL
- ASSAY_EXPLANATION: ELISA: IgG captured on goat anti-human IgG-Fc, biotin-human TNF titrated, streptavidin-HRP
QUANTITY_KIND: pEC50
Give bare numbers, as −log10 of the molar value.

Form field: reported pEC50 of hMAK195-AM14 (antibody, V domains shown, Full-length IgG; also called rHC3; hMAK195 rHC3) VH: EVQLVESGGGLVQPGGSLRLSCAASGFTFSNYGVSWVRQAPGKGLEWVSMIWADGSTHYASSLKGRFTISRDNSKNTLYLQMNSLRAEDTAVYYCAREWQHGPVAYWGQGTLVTVSS VL: DIQMTQSPSSLSASVGDRVTITCKASQAVSSAVAWYQQKPGKAPKLLIYWASTRHTGVPSRFSGSGSGTDFTLTISSLQPEDFATYYCQQHYSTPFTFGQGTKLEIKR
10.29
